# Experiment Notes: Plasma protein binding, equilibrium dialysis
# Assay type: in vitro ADME
# Experimental Conditions: human, fraction unbound as percent, read-out: fu in human plasma

Structure Smiles: Cc1cc(Cl)cc2sc(O[C@H]3CCN(C(=O)CCCS(=O)(=O)c4cccc(Br)c4)C[C@H]3F)nc12
fraction unbound at 6 h, 5 μM: < 0.01

----------
# Experiment Notes: Drug concentrations in compartments of the murine FRT after IP dosing
# Type: in vivo, mouse
# Experimental Conditions: mouse, uterus; female mice, 10 mg/kg IP, 24 hr; read-out: Uterus concentration
Parameter: concentration at 24 hr (µM)

Structure Smiles: O=C(c1ccc(OCc2ccc(OC(F)(F)F)cc2)cc1)N1CCN(c2ccc(C(F)(F)F)cn2)CC1
Measured Result: 3.11
